# Assay Target: Protein farnesyltransferase (Bos taurus, UniProt P29702+P49355)
# Test Name: Inhibition of Bovine farnesyl transferase
pIC50: −log10 of the molar value.
Mark label 1 for reported pIC50 of 8 or greater; mark label 0 for anything smaller.

Below are worked cases with known answers.
* Cn1cncc1C(OCc1ccc(C#N)c(N2CCC(CO)CC2)n1)c1ccc(C#N)c(-c2ccccc2C(F)(F)F)c1 (centres undefined) | label 1
* Cc1ccccc1-c1cc(C(OCc2ccc(Cl)c(Cl)c2)c2cncn2C)ccc1C#N (centres undefined) | label 0
* Cn1cncc1C(OCc1ccc(C#N)c(N2CCOCC2)n1)c1ccc(C#N)c(-c2ccccc2C(F)(F)F)c1 (centres undefined) | label 1
* Cn1cncc1C(OCc1ccc(F)c(C(F)(F)F)c1)c1ccc(C#N)c(-c2ccccc2C(F)(F)F)c1 (centres undefined) | label 1
* COC(=O)c1cccc(COC(c2ccc(C#N)c(-c3ccccc3C)c2)c2cncn2C)c1 (centres undefined) | label 0

Decide: is the reported value of pIC50 for CC(=O)NC1CCN(c2nc(COC(c3ccc(C#N)c(-c4ccccc4C(F)(F)F)c3)c3cncn3C)ccc2C#N)C1 (centres undefined) equal to or greater than 8? label 1

Decide: is the reported value of pIC50 for Cc1ccccc1-c1cc(C(OCc2cccc(Cl)c2)c2cncn2C)ccc1C#N (centres undefined) equal to or greater than 8? label 0
